# Tested on: SHIP enzyme
# protocol summary: In vitro SHIP enzyme assay (Assay 1), phosphate release by Malachite Green; further: key: a ‘+’ indicates a positive result for desired activity; a ‘−’ indicates a negative result for desired activity
# Assay type: biochemical
# test conditions: 10 ng enzyme/well, 100 μM inositol-1,3,4,5-tetrakisphosphate
readout: Assay 1: SHIP enzyme assay, desired activity

1) CC1(C)CCC[C@@]2(C)C1CC[C@@]1(C)c3c(C(=O)O)cc(O)c(O)c3C[C@@H]12 (stereo partly shown)    +
2) COC(=O)c1cc(O)c(O)c2c1[C@]1(C)CCC3C(C)(C)CCC[C@]3(C)[C@@H]1C2 (stereo partly shown)    +
3) CCc1cc(O)c(O)c2c1[C@]1(C)CCC3C(C)(C)CCC[C@]3(C)[C@H]1C2 (stereo partly shown) [Compound 18A]    +
4) COC(=O)c1cc(O)c(O)c2c1[C@]1(C)CCC3C(C)(C)CCC[C@]3(C)[C@H]1C2 (stereo partly shown)    +

###

# Tested on: J774.1a macrophage cells
# protocol summary: Macrophage TNF-α production (Assay 2); further: key: a ‘+’ indicates a positive result for desired activity; a ‘−’ indicates a negative result for desired activity
# Type: cell-based
# test conditions: 10 μg/mL test compound, 100 ng/mL LPS, supernatants after 2 hr and 5 hr
readout: Assay 2: Macrophage TNF-α production, desired activity

Worked examples follow.
1) CC1(C)CCC[C@]2(C)[C@H]3Cc4cc(O)ccc4[C@]3(C)CC[C@@H]12    +
2) Cc1cc(O)cc2c1[C@]1(C)CCC3C(C)(C)CCC[C@]3(C)[C@H]1C2 (stereo partly shown)    +
3) Cc1cc(O)c(O)c2c1[C@]1(C)CCC3C(C)(C)CCC[C@]3(C)[C@H]1C2 (stereo partly shown) [AQX-016A]    +
4) Cc1cc(OC(=O)C(N)Cc2cnc[nH]2)cc2c1[C@]1(C)CCC3C(C)(C)CCC[C@]3(C)[C@H]1C2 (stereo partly shown)    +
5) Cc1cc(O)c2c(c1)C[C@@H]1[C@@]3(C)CCCC(C)(C)[C@@H]3CC[C@@]21C    −
6) CC1(C)CCC[C@@]2(C)C1CC[C@@]1(C)c3c(C(=O)O)cc(O)c(O)c3C[C@@H]12 (stereo partly shown)    +
7) Cc1cc2c(cc1O)C[C@@H]1[C@@]3(C)CCCC(C)(C)[C@@H]3CC[C@@]21C    +
8) Cc1cc(OC(=O)C(CC(=O)O)NC(=O)CCC(=O)O)cc2c1[C@]1(C)CCC3C(C)(C)CCC[C@]3(C)[C@H]1C2 (stereo partly shown)    +

Would you be so kind as to report Assay 2: Macrophage TNF-α production, desired activity for each listed record?
1. CCc1cc(O)c(O)c2c1[C@]1(C)CCC3C(C)(C)CCC[C@]3(C)[C@H]1C2 (stereo partly shown) [Compound 18A]
2. COc1ccc2c(c1O)C[C@@H]1[C@@]3(C)CCCC(C)(C)[C@@H]3CC[C@@]21C
3. Cc1cc(OP(=O)(O)O)cc2c1[C@]1(C)CCC3C(C)(C)CCC[C@]3(C)[C@H]1C2 (stereo partly shown)

Found:
1: +; 2: −; 3: −

###

# Tested on: Mast cells
# protocol summary: Stimulation of mast cells by FcεRI crosslinking (Assay 4)
# Type: cell-based
# test conditions: test compound 30 min prior to DNP-HSA
# Protocol: Assay 1) In vitro testing in a SHIP enzyme assay. Test compounds were dissolved in a suitable solvent (e.g. EtOH, DMSO and others) and diluted into aqueous buffer (20 mM Tris HCl, pH 7.5 and 10 mM MgCl2). […] After 20 min at 37° C. and the amount of inorganic phosphate released assessed by the addition of Malachite Green reagent and absorbance measurement at 650 nm. […] Calcium influx was monitored by spectrofluorometry as described previously. […]
readout: Assay 4: Stimulation of mast cells by FcεRI crosslinking, desired activity

1) Cc1cc(OC(=O)C(N)CCCCN)cc2c1[C@]1(C)CCC3C(C)(C)CCC[C@]3(C)[C@H]1C2 (stereo partly shown)    +
2) Cc1cc(O)cc2c1[C@]1(C)CCC3C(C)(C)CCC[C@]3(C)[C@@H]1C2 (stereo partly shown)    +
3) Cc1cc(O)cc2c1[C@@]1(C)CCC3C(C)(C)CCC[C@]3(C)[C@H]1C2 (stereo partly shown)    +
4) Cc1cc(O)cc2c1[C@]1(C)CCC3C(C)(C)CCC[C@]3(C)[C@H]1C2 (stereo partly shown)    +
